Test: Metabolic stability in human liver microsomes
Type: in vitro ADME
Conditions: human liver microsomes, negative control incubation, 60 min
quantity: Negative control Remaining % (60 min) (%)
Output spec: scalar in %, unitless text.

Guide cases for Negative control Remaining % (60 min), answers given:
- compound: "O=C1NN(C2CC2)CCc2ncc(F)cc2[C@H]2CCCN2c2ccn3ncc1c3n2 [Example 1]"
  experimental value: 98.1
- compound: "C[C@@H]1CCc2ncc(F)cc2[C@H]2CCCN2c2ccn3ncc(c3n2)C(=O)N1 [LOXO-195, reference compound]"
  experimental value: 102
- compound: "CN1CCc2ncc(F)cc2[C@H]2CCCN2c2ccn3ncc(c3n2)C(=O)N1 [Example 4]"
  experimental value: 108.0

Alright, here's another compound for you.
Record O=C(Nc1cnn2ccc(N3CCC[C@@H]3c3cc(F)ccc3F)nc12)N1CC[C@H](O)C1 [LOXO-101, reference compound] , field Negative control Remaining % (60 min): 95.9

All figures here come from patent US11597729B2.
